# system: PIM3 (Homo sapiens)
# assay_info: Radiometric kinase assay (HotSpot)
# conditions_used: ratio of IC50 values
Overview of reported Selectivity for Pim-3 over CK2α across a group of compounds:

Please review the entries below; each comes with its answer.
[
  {
    "compound": "Brc1c(Br)c(Br)c2[nH]c(NCCN3CCCCC3)nc2c1Br",
    "system": "PIM3 (Homo sapiens)",
    "measured_parameter": "Selectivity for Pim-3 over CK2α",
    "readout_value": 37.3
  },
  {
    "compound": "Brc1c(Br)c(Br)c2[nH]c(NCCN3CCOCC3)nc2c1Br",
    "system": "PIM3 (Homo sapiens)",
    "measured_parameter": "Selectivity for Pim-3 over CK2α",
    "readout_value": 60.1
  },
  {
    "compound": "Brc1c(Br)c(Br)c2[nH]c(NCCCn3ccnc3)nc2c1Br",
    "system": "PIM3 (Homo sapiens)",
    "measured_parameter": "Selectivity for Pim-3 over CK2α",
    "readout_value": 28.3
  },
  {
    "compound": "CN(C)c1nc2c(Br)c(Br)c(Br)c(Br)c2n1CC(=O)O [Compound K66, reference compound]",
    "system": "PIM3 (Homo sapiens)",
    "measured_parameter": "Selectivity for Pim-3 over CK2α",
    "readout_value": 2.1
  },
  {
    "compound": "NCCCCNc1nc2c(Br)c(Br)c(Br)c(Br)c2[nH]1",
    "system": "PIM3 (Homo sapiens)",
    "measured_parameter": "Selectivity for Pim-3 over CK2α",
    "readout_value": 19.1
  }
]

Challenge: What reported Selectivity for Pim-3 over CK2α corresponds to NCC(O)CNc1nc2c(Br)c(Br)c(Br)c(Br)c2[nH]1 (stereo not drawn) on PIM3 (Homo sapiens)?
Response given: 14.4

Challenge: Try this compound next: `Brc1c(Br)c(Br)c2[nH]c(NCCCN3CCCCC3)nc2c1Br`
Response given: 4.5

Challenge: Also `Brc1c(Br)c(Br)c2[nH]c(NCCN3CCCC3)nc2c1Br` , if possible.
Response given: 29.6

Challenge: Input `CN1CCN(c2nc3c(Br)c(Br)c(Br)c(Br)c3[nH]2)CC1`
Response given: 21.7

====

# reported IC50; entries follow
# system: PIM2 (Homo sapiens, UniProt Q9P1W9)
# Sequence (Q9P1W9 whole entry): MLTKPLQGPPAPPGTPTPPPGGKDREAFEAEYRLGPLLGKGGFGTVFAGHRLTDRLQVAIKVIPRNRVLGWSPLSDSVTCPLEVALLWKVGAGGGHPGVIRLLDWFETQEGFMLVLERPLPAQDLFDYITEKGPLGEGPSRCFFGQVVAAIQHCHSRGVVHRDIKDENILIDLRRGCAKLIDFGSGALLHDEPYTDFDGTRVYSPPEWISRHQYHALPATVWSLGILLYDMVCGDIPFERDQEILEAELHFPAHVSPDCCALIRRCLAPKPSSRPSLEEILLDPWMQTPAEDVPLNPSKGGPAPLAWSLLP
# assay_info: Radiometric kinase assay (HotSpot)
Reply with just the number (in µM).

[
  {
    "molecule": "NCCCCNc1nc2c(Br)c(Br)c(Br)c(Br)c2[nH]1 [Compound 61]",
    "system": "PIM2 (Homo sapiens, UniProt Q9P1W9)",
    "endpoint_unit": "µM",
    "IC50": 0.199
  }
]

Challenge: Recorded IC50 for Brc1c(Br)c(Br)c2[nH]c(NCCN3CCOCC3)nc2c1Br [Compound 16] , please?
Response given: 3.01

Challenge: Moving on to Brc1c(Br)c(Br)c2[nH]c(NCCCn3ccnc3)nc2c1Br [Compound 65]
Response given: 0.823

Challenge: Continue with Nc1ccc(Nc2nc3c(Br)c(Br)c(Br)c(Br)c3[nH]2)cc1 [Compound 86]
Response given: 1.55

====

Recorded measurements of Selectivity for Pim-3 over CK2α, one per entry
# system: PIM3 (Homo sapiens, UniProt Q86V86)
# assay_info: Radiometric kinase assay (HotSpot)
# conditions_used: ratio of IC50 values
Lab note: record just the number, no unit beside it.

Challenge: Query (molecule): Brc1c(Br)c(Br)c2[nH]c(N3CCNCC3)nc2c1Br [Compound 20] ; field requested: Selectivity for Pim-3 over CK2α
Response given: 3.1

====

# system: PIM2 (Homo sapiens, UniProt Q9P1W9)
# assay_info: Radiometric kinase assay (HotSpot)
# conditions_used: read-out: Inhibitory activity (IC50 in nM) in radiometric cell free assay, Pim-2; ATP 1 μM; peptide 5 μM
Catalogue of compounds with associated IC50
Record the value in nM, omitting the unit from your answer.

[
  {
    "compound": "CN(C)c1nc2c(Br)c(Br)c(Br)c(Br)c2n1CC(=O)O [Compound K66, reference compound]",
    "system": "PIM2 (Homo sapiens, UniProt Q9P1W9)",
    "endpoint_unit": "nM",
    "IC50": 954
  },
  {
    "compound": "CN(C)c1nc2c(Br)c(Br)c(Br)c(Br)c2[nH]1 [DMAT, reference compound]",
    "system": "PIM2 (Homo sapiens, UniProt Q9P1W9)",
    "endpoint_unit": "nM",
    "IC50": 2460
  }
]

Challenge: // query IC50 value for entry Brc1c(Br)c(Br)c2c(Br)n[nH]c2c1Br [Compound K64, reference compound]
Response given: 871

====

# system: PIM2 (Homo sapiens)
# assay_info: Radiometric kinase assay (HotSpot)
// reported IC50 per item
Kindly provide the numeric value in nM only, without the unit symbol.

Challenge: Which IC50 reading was recorded for the compound NCC(O)CNc1nc2c(Br)c(Br)c(Br)c(Br)c2[nH]1 (stereo not shown) ?
Response given: 90.3

Challenge: Likewise for `Brc1c(Br)c(Br)c2[nH]c(NCCN3CCCCC3)nc2c1Br` ?
Response given: 897

Challenge: Field entry: `Brc1c(Br)c(Br)c2[nH]c(N3CCNCC3)nc2c1Br`
Response given: 326

====

# system: PIM3 (Homo sapiens, UniProt Q86V86)
# assay_info: Radiometric kinase assay (HotSpot)
# conditions_used: read-out: Inhibitory activity (IC50 in nM) in radiometric cell free assay, Pim-3; ATP 1 μM; peptide 20 μM
measured_parameter: IC50 (nM)
State just the number; it will be interpreted in nM.

[
  {
    "compound": "Brc1c(Br)c(Br)c2[nH]nnc2c1Br [TBB, reference compound]",
    "system": "PIM3 (Homo sapiens, UniProt Q86V86)",
    "readout_value": 269
  },
  {
    "compound": "Brc1c(Br)c(Br)c2c(Br)n[nH]c2c1Br [Compound K64, reference compound]",
    "system": "PIM3 (Homo sapiens, UniProt Q86V86)",
    "readout_value": 212
  },
  {
    "compound": "Brc1c(Br)c(Br)c2[nH]cnc2c1Br [TBI, reference compound]",
    "system": "PIM3 (Homo sapiens, UniProt Q86V86)",
    "readout_value": 2940
  },
  {
    "compound": "CN(C)c1nc2c(Br)c(Br)c(Br)c(Br)c2n1CC(=O)O [Compound K66, reference compound]",
    "system": "PIM3 (Homo sapiens, UniProt Q86V86)",
    "readout_value": 96.3
  }
]

Let us move to another entry and its IC50.
Challenge: Given the entry CN(C)c1nc2c(Br)c(Br)c(Br)c(Br)c2[nH]1 [DMAT, reference compound] , what IC50 was observed with PIM3 (Homo sapiens, UniProt Q86V86)?
Response given: 87.3

====

# system: UniProt P68400
# Sequence (P68400 whole entry): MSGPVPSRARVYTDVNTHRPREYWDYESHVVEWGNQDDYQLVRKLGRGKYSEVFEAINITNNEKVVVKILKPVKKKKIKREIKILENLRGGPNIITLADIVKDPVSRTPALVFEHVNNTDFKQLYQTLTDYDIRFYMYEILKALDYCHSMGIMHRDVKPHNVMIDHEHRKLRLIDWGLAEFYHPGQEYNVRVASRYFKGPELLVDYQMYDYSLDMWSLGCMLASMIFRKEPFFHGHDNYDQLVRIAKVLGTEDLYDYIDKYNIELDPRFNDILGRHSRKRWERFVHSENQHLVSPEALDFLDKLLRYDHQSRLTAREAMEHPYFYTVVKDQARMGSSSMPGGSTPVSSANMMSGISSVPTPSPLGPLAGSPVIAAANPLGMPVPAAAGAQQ
# assay_info: Radiometric kinase assay (HotSpot)
measured_parameter: IC50 (nM)
Unit nM implied. Number only.

// worked examples, IC50 included
[
  {
    "structure_notation": "Brc1c(Br)c(Br)c2[nH]c(NCCCn3ccnc3)nc2c1Br",
    "endpoint_unit": "nM",
    "readout_value": 448
  },
  {
    "structure_notation": "Brc1c(Br)c(Br)c2[nH]c(NCCN3CCCC3)nc2c1Br",
    "endpoint_unit": "nM",
    "readout_value": 833
  }
]

Let's switch to this compound now.
Challenge: Which IC50 is listed for `Brc1c(Br)c(Br)c2[nH]c(NCCN3CCCCC3)nc2c1Br` ?
Response given: 2260

====

Selectivity for Pim-3 over CK2α for assorted compounds
# system: PIM3 (Homo sapiens, UniProt Q86V86)
# assay_info: Radiometric kinase assay (HotSpot)
# conditions_used: ratio of IC50 values
No unit in the answer, please; the number alone is enough.

Example entries and their recorded answers appear below.
[
  {
    "compound": "Brc1c(Br)c(Br)c2[nH]c(Nc3ccccc3)nc2c1Br",
    "Selectivity for Pim-3 over CK2α": 0.7
  },
  {
    "compound": "Brc1c(Br)c(Br)c2c(Br)n[nH]c2c1Br [Compound K64, reference compound]",
    "Selectivity for Pim-3 over CK2α": 3.0
  },
  {
    "compound": "NCCCNc1nc2c(Br)c(Br)c(Br)c(Br)c2[nH]1",
    "Selectivity for Pim-3 over CK2α": 43.6
  }
]

Okay, now this compound:
Challenge: Selectivity for Pim-3 over CK2α lookup needed for `Nc1ccc(Nc2nc3c(Br)c(Br)c(Br)c(Br)c3[nH]2)cc1` , thanks.
Response given: 1.1

====

# system: PIM2 (Homo sapiens, UniProt Q9P1W9)
# assay_info: Radiometric kinase assay (HotSpot)
measured_parameter: IC50 (nM)
Report the figure in nM without appending any unit label.

# example entries with known answers
[
  {
    "compound": "Brc1c(Br)c(Br)c2[nH]c(NCCN3CCCC3)nc2c1Br [Compound 14]",
    "IC50 (nM)": 618
  },
  {
    "compound": "Brc1c(Br)c(Br)c2[nH]c(NCCCN3CCCCC3)nc2c1Br [Compound 59]",
    "IC50 (nM)": 1490
  },
  {
    "compound": "CN1CCN(c2nc3c(Br)c(Br)c(Br)c(Br)c3[nH]2)CC1 [Compound 21]",
    "IC50 (nM)": 1690
  }
]

Here is another compound to look at.
Challenge: What value of IC50 has been recorded for this entry: NCCCNc1nc2c(Br)c(Br)c(Br)c(Br)c2[nH]1 [Compound 11]
Response given: 98.2

Source: patent US20110230481A2
